Here the recorded selectivity ratio is given for each entry.
Test: in vitro
Details: human, MT4 cells; MT4 cells infected with HIV1 3B
Description: Selectivity index, ratio of CC50 for cytotoxicity against human MT4 cells to EC50 for antiviral activity against HIV1 3B infected in human MT4 cells
REPORTED_METRIC: selectivity ratio

>>> observed_result("COc1cc2nc([S+]([O-])CC(=O)Nc3ccc([N+](=O)[O-])cc3)nc(Nc3c(Cl)cc(/C=C/C#N)cc3Cl)c2cc1OC (stereo not drawn)")
2410
>>> observed_result("COc1cc2nc([S+]([O-])CC(=O)Nc3ccc(C)cc3)nc(Nc3c(Cl)cc(/C=C/C#N)cc3Cl)c2cc1OC (stereo not drawn)")
98
>>> observed_result("COc1cc2nc(Nc3ccc(C#N)cc3)nc(Nc3c(C)cc(/C=C/C#N)cc3C)c2cc1OC")
806
>>> observed_result("COc1cc2nc(SCC(=O)Nc3ccc(Cl)cc3)nc(Nc3c(Cl)cc(/C=C/C#N)cc3Cl)c2cc1OC")
24

---

Measured selectivity ratio, listed per entry for reference.
Test: in vitro
Conditions: human, MT4 cells; MT4 cells infected with HIV1 3B K103N mutant
Description: Selectivity index, ratio of CC50 for cytotoxicity against human MT4 cells to EC50 for antiviral activity against HIV1 3B harbouring NNRTI K103N mutant infected in human MT4 cells
REPORTED_METRIC: selectivity ratio

>>> observed_result("COc1cc2nc([S+]([O-])CC(=O)Nc3ccccc3C#N)nc(Nc3c(Cl)cc(/C=C/C#N)cc3Cl)c2cc1OC (centres undefined)")
"> 18"
>>> observed_result("COc1cc2nc([S+]([O-])CC(=O)Nc3ccc(S(N)(=O)=O)cc3)nc(Nc3c(Cl)cc(/C=C/C#N)cc3Cl)c2cc1OC (centres undefined)")
"> 21"
>>> observed_result("COc1cc2nc([S+]([O-])CC(=O)Nc3cccc([N+](=O)[O-])c3)nc(Nc3c(Cl)cc(/C=C/C#N)cc3Cl)c2cc1OC (centres undefined)")
"≥ 308"
>>> observed_result("COc1cc2nc([S+]([O-])CC(=O)Nc3ccc(C#N)cc3)nc(Nc3c(Cl)cc(/C=C/C#N)cc3Cl)c2cc1OC (centres undefined)")
"≥ 4420"

---

Test: Stability in rat liver microsomes assessed as intrinsic clearance
Assay type: ADME, Microsome
Conditions: read-out: CLH
REPORTED_METRIC: microsomal CLint (µL/min/mg)

>>> observed_result("COc1cc2nc([S+]([O-])CC(=O)Nc3ccc(C#N)cc3)nc(Nc3c(C)cc(/C=C/C#N)cc3C)c2cc1OC (stereo unspecified)")
8.58

---

Tested on: Human immunodeficiency virus 1
Experiment: Antiviral activity against HIV1 3B harbouring NNRTI K103N mutant infected in human MT4 cells assessed as virus-induced cytopathic effect incubated for 5 days by MTT assay
Type: functional, organism-based
Conditions: Human immunodeficiency virus 1, 3B, MT4, 120 h
pEC50: −log10 of the molar value.
# binarize pEC50: threshold 7 inclusive, high side TRUE, low side FALSE

>>> discrete_label("COc1cc2nc([S+]([O-])CC(=O)Nc3cccc([N+](=O)[O-])c3)nc(Nc3c(Cl)cc(/C=C/C#N)cc3Cl)c2cc1OC (configuration not stated)")
"FALSE"
>>> discrete_label("COc1cc2nc(Nc3ccc(C#N)cc3)nc(Nc3c(C)cc(/C=C/C#N)cc3C)c2cc1OC")
"TRUE"
>>> discrete_label("COc1cc2nc([S+]([O-])CC(=O)Nc3ccc(S(N)(=O)=O)cc3)nc(Nc3c(Cl)cc(/C=C/C#N)cc3Cl)c2cc1OC (configuration not stated)")
"FALSE"
>>> discrete_label("COc1cc2nc(SCC(=O)Nc3ccc(C(F)(F)F)cc3)nc(Nc3c(Cl)cc(/C=C/C#N)cc3Cl)c2cc1OC")
"FALSE"
>>> discrete_label("COc1cc2nc([S+]([O-])CC(=O)Nc3ccc(C(F)(F)F)cc3)nc(Nc3c(C)cc(/C=C/C#N)cc3C)c2cc1OC (configuration not stated)")
"FALSE"

---

Test: in vitro
Conditions: human, MT4 cells; MT4 cells infected with HIV1 3B
REPORTED_METRIC: selectivity ratio

>>> observed_result("COc1ccc(NC(=O)CSc2nc(Nc3c(C)cc(/C=C/C#N)cc3C)c3cc(OC)c(OC)cc3n2)cc1")
"> 82"
>>> observed_result("COc1cc2nc(Nc3ccc(C#N)cc3)nc(Nc3c(F)cc(/C=C/C#N)cc3F)c2cc1OC")
156
>>> observed_result("COc1cc2nc(Nc3ccc(C#N)cc3)nc(Nc3c(C)cc(/C=C/C#N)cc3F)c2cc1OC")
"> 4250"
>>> observed_result("COc1cc2nc(SCC(=O)Nc3cc([N+](=O)[O-])ccc3F)nc(Nc3c(Cl)cc(/C=C/C#N)cc3Cl)c2cc1OC")
"> 1"
>>> observed_result("COc1cc2nc([S+]([O-])CC(=O)Nc3cccc(F)c3)nc(Nc3c(Cl)cc(/C=C/C#N)cc3Cl)c2cc1OC (stereo unspecified)")
40
>>> observed_result("COc1cc2nc([S+]([O-])CC(=O)Nc3ccc([N+](=O)[O-])cc3)nc(Nc3c(C)cc(/C=C/C#N)cc3C)c2cc1OC (stereo unspecified)")
4590
>>> observed_result("COc1cc2nc([S+]([O-])CC(=O)Nc3ccccc3C#N)nc(Nc3c(Cl)cc(/C=C/C#N)cc3Cl)c2cc1OC (stereo unspecified)")
"> 7"
>>> observed_result("COc1cc2nc([S+]([O-])CC(=O)Nc3cccc(C#N)c3)nc(Nc3c(Cl)cc(/C=C/C#N)cc3Cl)c2cc1OC (stereo unspecified)")
"≥ 706"
>>> observed_result("COc1cc2nc(Nc3ccc(C#N)cc3)nc(Nc3c(Cl)cc(/C=C/C#N)cc3Cl)c2cc1OC")
1890
>>> observed_result("COc1cc2nc([S+]([O-])CC(=O)Nc3ccccc3F)nc(Nc3c(Cl)cc(/C=C/C#N)cc3Cl)c2cc1OC (stereo unspecified)")
"> 12"
>>> observed_result("COc1cc2nc(SCC(=O)Nc3ccc([N+](=O)[O-])cc3)nc(Nc3c(C)cc(/C=C/C#N)cc3C)c2cc1OC")
"> 292"
>>> observed_result("COc1ccccc1NC(=O)C[S+]([O-])c1nc(Nc2c(Cl)cc(/C=C/C#N)cc2Cl)c2cc(OC)c(OC)cc2n1 (stereo unspecified)")
"> 63"
>>> observed_result("COc1cc2nc([S+]([O-])CC(=O)Nc3ccc(C#N)cc3)nc(Nc3c(Cl)cc(/C=C/C#N)cc3Cl)c2cc1OC (stereo unspecified)")
"≥ 3240"
>>> observed_result("COc1cc2nc([S+]([O-])CC(=O)Nc3ccccc3C(F)(F)F)nc(Nc3c(Cl)cc(/C=C/C#N)cc3Cl)c2cc1OC (stereo unspecified)")
"> 3"
>>> observed_result("COc1cc2nc([S+]([O-])CC(=O)Nc3ccc(F)cc3)nc(Nc3c(C)cc(/C=C/C#N)cc3C)c2cc1OC (stereo unspecified)")
209
>>> observed_result("COc1cc2nc([S+]([O-])CC(=O)Nc3ccc(C#N)cc3)nc(Nc3c(C)cc(/C=C/C#N)cc3C)c2cc1OC (stereo unspecified)")
"> 8870"

---

Assay: in vitro
Details: human, MT4 cells; MT4 cells infected with HIV1 3B K103N mutant
REPORTED_METRIC: selectivity ratio

>>> observed_result("COc1cc2nc([S+]([O-])CC(=O)Nc3ccc(C(F)(F)F)cc3)nc(Nc3c(Cl)cc(/C=C/C#N)cc3Cl)c2cc1OC (stereo unspecified)")
247
>>> observed_result("COc1cc2nc([S+]([O-])CC(=O)Nc3ccc(C)cc3)nc(Nc3c(Cl)cc(/C=C/C#N)cc3Cl)c2cc1OC (stereo unspecified)")
657
>>> observed_result("COc1cc2nc(Nc3ccc(C#N)cc3)nc(Nc3c(C)cc(/C=C/C#N)cc3C)c2cc1OC")
986
>>> observed_result("COc1cc2nc(SCC(=O)Nc3ccc(Cl)cc3)nc(Nc3c(Cl)cc(/C=C/C#N)cc3Cl)c2cc1OC")
44
>>> observed_result("COc1cc2nc([S+]([O-])CC(=O)Nc3ccc(C(F)(F)F)cc3)nc(Nc3c(C)cc(/C=C/C#N)cc3C)c2cc1OC (stereo unspecified)")
210
>>> observed_result("COc1cc2nc(Nc3ccc(C#N)cc3)nc(Nc3c(F)cc(/C=C/C#N)cc3F)c2cc1OC")
355

---

Test system: Human immunodeficiency virus 1
Experiment: Antiviral activity against HIV1 3B harbouring NNRTI K103N mutant infected in human MT4 cells assessed as virus-induced cytopathic effect incubated for 5 days by MTT assay
Format: functional, organism-based
Settings: Human immunodeficiency virus 1, 3B, MT4, 120 h
REPORTED_METRIC: EC50 (µM)

>>> observed_result("COc1cc2nc([S+]([O-])CC(=O)Nc3ccccc3C#N)nc(Nc3c(Cl)cc(/C=C/C#N)cc3Cl)c2cc1OC (stereo not drawn)")
11.7
>>> observed_result("COc1cc2nc(Nc3ccc(C#N)cc3)nc(Nc3c(Cl)cc(/C=C/C#N)cc3Cl)c2cc1OC")
0.0063
>>> observed_result("COc1cc2nc(Nc3ccc(C#N)cc3)nc(Nc3c(C)cc(/C=C/C#N)cc3F)c2cc1OC")
0.011
>>> observed_result("O=C1Nc2ccc(Cl)cc2[C@@](C#CC2CC2)(C(F)(F)F)O1 [EFAVIRENZ]")
0.124
>>> observed_result("COc1ccccc1NC(=O)C[S+]([O-])c1nc(Nc2c(Cl)cc(/C=C/C#N)cc2Cl)c2cc(OC)c(OC)cc2n1 (stereo not drawn)")
1.54
>>> observed_result("COc1cc2nc([S+]([O-])CC(=O)Nc3ccc(C(F)(F)F)cc3)nc(Nc3c(Cl)cc(/C=C/C#N)cc3Cl)c2cc1OC (stereo not drawn)")
0.0889
>>> observed_result("COc1cc2nc([S+]([O-])CC(=O)Nc3ccccc3F)nc(Nc3c(Cl)cc(/C=C/C#N)cc3Cl)c2cc1OC (stereo not drawn)")
5.66
>>> observed_result("COc1cc2nc([S+]([O-])CC(=O)Nc3ccc([N+](=O)[O-])cc3)nc(Nc3c(C)cc(/C=C/C#N)cc3C)c2cc1OC (stereo not drawn)")
0.0157
